Tested on: NCI-H196 complex spheroid viability
Experiment: Anticancer human tumor NCI-H196 cell line growth inhibition [LSD1];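 also: spheroids exposed to agents for 7 days before readout; 100% = DMSO vehicle control viability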
Settings: second compound 0.1 µM; first compound 0.03 µM; active compounds read low
PROPERTY: viability, T/C (%)
One number for each entry, in %.

These recorded examples may help you get a feel for the data.
| COMPOUND | viability, T/C / % |
| --- | --- |
| CCN(c1cc(-c2ccc(CN3CCOCC3)cc2)cc(C(=O)NCc2c(C)cc(C)[nH]c2=O)c1C)C1CCOCC1 + NC1CCC(NC2CC2c2ccccc2)CC1 | 95.6 |
| Nc1ncn(C2CC(O)C(CO)S2)c(=O)n1 (configuration not stated) + NC1CC1c1ccc(-c2cccc(O)c2)cc1 | 101 |

For each of the items listed, what is its viability, T/C?
1. Nc1ncn(C2CC(O)C(CO)S2)c(=O)n1 (configuration not stated) + NC1CCC(NC2CC2c2ccccc2)CC1
2. CCN(c1cc(-c2ccc(CN3CCOCC3)cc2)cc(C(=O)NCc2c(C)cc(C)[nH]c2=O)c1C)C1CCOCC1 + NC1CC1c1ccc(-c2cccc(O)c2)cc1
3. Nc1ccccc1NC(=O)c1ccc(CNC(=O)OCc2cccnc2)cc1 + NC1CC1c1ccc(-c2cccc(O)c2)cc1

Result string:
[118, 91.8, 66.3]

For each of the items listed, what is its viability, T/C?
1. COc1cc(C2c3cc4c(cc3C(OC3OC5COC(C)OC5C(O)C3O)C3COC(=O)C23)OCO4)cc(OC)c1O (configuration not stated) + NC1CC1c1ccc(-c2cccc(O)c2)cc1
2. Nc1ccccc1NC(=O)c1ccc(CNC(=O)OCc2cccnc2)cc1 + NC1CCC(NC2CC2c2ccccc2)CC1

Result string:
97
66.6
